Field: Kd. Provide a value for each of the binders that follow.
- ASSAY_TARGET: bovine α form prion (bovine, UniProt P10279 102-241)
Report as a plain number; the unit nM is understood.

Return Kd (reported value) for this binder: boPrP-2 (scFv, V domains shown) VH: QVQLVQSGGGLVQPGRSLRLSCAASGFTFDDYAMHWVRQAPGKGLEWVSGISWNSGSIGYADSVKGRFTISRDNAKNSLYLQMNSLRAEDTALYYCAKGGGSYYYFDYWGQGTLVTVSS VL: QSVLTQPPSVSGAPGQRVSISCTGNRSNIGAGYDVHWYQQVPGMAPKLLIYGNTKRPSGVPDRFSGSKSGTSASLAITGLQAEDEADYYCQSFDNTLSDSRWVFGGGTKLTVLG
410

Return Kd (reported value) for this binder: boPrP-15 (scFv) chain 1: QVQLVQSGAEVKKPGASVKVSCKASGYTFTSYGISWVRQAPGQGLEWMGWISAYNGNTNYAQKLQGRVTMTTDTSTSTAYMELRSLRSDDTAVYYCARYGGRIAAASYNWFDPWGQGTLAICPDSACLRVWVSWTVDHLVTVSS chain 2: QSALTQPASVSGSPGQSITISCTGTSSDVGGYNYVSWYQQHPGKAPRLMIYDVSNRPSGVSNRFSGSKSGNTASLTISGLQSEDEADYYCSSYTSSSTLVFGTGTKLTVLG
4.6

Return Kd (reported value) for this binder: huPrP-18 (scFv, V domains shown) VH: QVQLVQSGAEVKKPGASVKVSCKASGYTFTSYPIHWVRQAPGQRLEWMGWLNPGTGVTKYSQNFQGRVTLTSDTSANTAYLELSSLRSEDTALYYCTRDPLDSRKNWFDPWGQGTLVTVSS VL: SYVLTQPPSASGTPGQRVTISCSGSNSNIGTNFVYWYQQLPGTAPKLLIYRNNQRPSGVPDRFSGSKSGTSASLAISGLRSEDEADYYCAAWDDSLSGRVFGGGTQLTVLG
60

Return Kd (reported value) for this binder: huPrP-39 (scFv, V domains shown) VH: EVQLVQSGGGLVQPGRSLRLSCAASGFTFGDYAMSWVRQAPGKGPEWIATISSSGDILDYADSVRGRFSISRDNAQRSLHLQMTSLRPDDSAIYYCAREYFFSFDVWGRGTTVTVSS VL: QSVLAQPPSLSVSPGQTARITCSGDGVGSGFVSWYQQRPGQSPSVVIYDDAKRPSGIPERFSGSNSGDTATLTISESRAVDEADYYCQTWDSRSPVFGGGTKVTVLG
29
